- System: EW-24 (Ewing's Sarcoma)
- measurementDescription: combination Emax (second highest fraction inhibited in the dose matrix, 72 h); higher = more inhibition; extreme values may be limits of the assay
Binary call on combination Emax: True from 0.7 upward, False beneath that.

Here's what some known entries look like.
compound	groupLabel
N#Cc1cnc(Nc2cc(NC[C@H]3CNCCO3)c(C(F)(F)F)cn2)cn1 [SRA737] + CCc1c2c(nc3ccc(O)cc13)-c1cc3c(c(=O)n1C2)COC(=O)[C@]3(O)CC [SN-38] (first compound max 10 µM, 7x7, partner max 0.3 µM)	True
C[C@@H](Oc1cc(-c2cnn(C3CCNCC3)c2)cnc1N)c1c(Cl)ccc(F)c1Cl [Crizotinib] + Cn1cnc2c(F)c(Nc3ccc(Br)cc3Cl)c(C(=O)NOCCO)cc21 [Selumetinib] (first compound max 10 µM, 7x7, partner max 10 µM)	False
C=CCn1c(=O)c2cnc(Nc3ccc(N4CCN(C)CC4)cc3)nc2n1-c1cccc(C(C)(C)O)n1 [AZD1775] + Nc1ccn([C@@H]2O[C@H](CO)[C@@H](O)C2(F)F)c(=O)n1 [Gemcitabine] (first compound max 1 µM, partner max 0.3 µM)	False
CS(=O)(=O)CCNCc1ccc(-c2ccc3ncnc(Nc4ccc(OCc5cccc(F)c5)c(Cl)c4)c3c2)o1 [Lapatinib] + NC1(c2ccc(-c3nc4ccn5c(=O)[nH]nc5c4cc3-c3ccccc3)cc2)CCC1 [MK-2206] (first compound max 10 µM, 7x7, partner max 10 µM)	True
COc1nnc2ccc(N3CCC(c4ccc(OCCN5CCN(C)C(=O)[C@H]5C)cc4)CC3)nn12 [AZD5153] + Cn1cnc2c(F)c(Nc3ccc(Br)cc3Cl)c(C(=O)NOCCO)cc21 [Selumetinib] (first compound max 1 µM, 7x7, partner max 10 µM)	False

Now for a further compound.
Asked: Item CCc1c2c(nc3ccc(O)cc13)-c1cc3c(c(=O)n1C2)COC(=O)[C@]3(O)CC [SN-38] + CN(C)CCCOc1ccc(-c2ccc3ncc4c(c3c2)n(C2CCOCC2)c(=O)n4C)cn1 [AZD0156] (first compound max 0.3 µM, 7x7, partner max 1 µM) with combination Emax of 0.7 or above?
Given back: True

* * *

- Tested on: KARPAS-299 (T-Cell Non-Hodgkin's Lymphoma)
- measurementDescription: combination Emax (second highest fraction inhibited in the dose matrix, 72 h); higher = more inhibition; extreme values may be limits of the assay
Binary call on combination Emax: criterion met from 0.9 upward, criterion not met beneath that.

Here's what some known entries look like.
molecule	assayTarget	groupLabel
Cc1c2c(nn1C)CSCc1cc(n(C)n1)CSc1cc(c3ccccc3c1)OCCCc1c(C(=O)O)n(C)c3c-2c(Cl)ccc13 [AZD5991] + CCN(CCO)CCCOc1ccc2c(Nc3cc(CC(=O)Nc4cccc(F)c4)[nH]n3)ncnc2c1 [AZD2811] (first compound max 1 µM, 7x7, partner max 1 µM)	KARPAS-299 (T-Cell Non-Hodgkin's Lymphoma)	criterion met
Cc1c2c(nn1C)CSCc1cc(n(C)n1)CSc1cc(c3ccccc3c1)OCCCc1c(C(=O)O)n(C)c3c-2c(Cl)ccc13 [AZD5991] + Cn1cnc2c(F)c(Nc3ccc(Br)cc3Cl)c(C(=O)NOCCO)cc21 [Selumetinib] (first compound max 1 µM, 7x7, partner max 3 µM)	KARPAS-299 (T-Cell Non-Hodgkin's Lymphoma)	criterion met
CC(=O)c1c(C)c2cnc(Nc3ccc(N4CCNCC4)cn3)nc2n(C2CCCC2)c1=O [Palbociclib] + Cn1cnc2c(F)c(Nc3ccc(Br)cc3Cl)c(C(=O)NOCCO)cc21 [Selumetinib] (first compound max 10 µM, 7x7, partner max 10 µM)	KARPAS-299 (T-Cell Non-Hodgkin's Lymphoma)	criterion not met
C[C@@H](Nc1cc(F)cc(F)c1)c1cc(C(=O)N(C)C)cc2c(=O)cc(N3CCOCC3)oc12 [AZD8186] + CC(=O)c1c(C)c2cnc(Nc3ccc(N4CCNCC4)cn3)nc2n(C2CCCC2)c1=O [Palbociclib] (first compound max 10 µM, 7x7, partner max 10 µM)	KARPAS-299 (T-Cell Non-Hodgkin's Lymphoma)	criterion not met
C=CCn1c(=O)c2cnc(Nc3ccc(N4CCN(C)CC4)cc3)nc2n1-c1cccc(C(C)(C)O)n1 [AZD1775] + CCc1c2c(nc3ccc(O)cc13)-c1cc3c(c(=O)n1C2)COC(=O)[C@]3(O)CC [SN-38] (first compound max 1 µM, partner max 0.3 µM)	KARPAS-299 (T-Cell Non-Hodgkin's Lymphoma)	criterion met

Asked: Item Cc1c2c(nn1C)CSCc1cc(n(C)n1)CSc1cc(c3ccccc3c1)OCCCc1c(C(=O)O)n(C)c3c-2c(Cl)ccc13 [AZD5991] + C[C@@H]1COCCN1C2=NC(=NC(=C2)C3(CC3)[S@](=N)(=O)C)C4=C5C=CNC5=NC=C4 [AZD6738] (first compound max 1 µM, 7x7, partner max 10 µM) with combination Emax of 0.9 or above?
Given back: criterion met

Asked: Item CN(CCO)CC[C@H](CSc1ccccc1)Nc1ccc(S(=O)(=O)NC(=O)c2ccc(N3CCC([C@@H](O)c4ccccc4-c4ccc(Cl)cc4)CC3)cc2)cc1S(=O)(=O)C(F)(F)F [AZD4320] + C=CCn1c(=O)c2cnc(Nc3ccc(N4CCN(C)CC4)cc3)nc2n1-c1cccc(C(C)(C)O)n1 [AZD1775] (first compound max 1 µM, partner max 1 µM) with combination Emax of 0.9 or above?
Given back: criterion met

Ref: the supplement of paper PMC11061612
